Reference source: PubChem BioAssay AID2355

// inhibition lookup, one value per entry
targetUnderTest: Serine/threonine-protein phosphatase PP1-alpha catalytic subunit (Homo sapiens) (UniProt P62136)
Sequence (P62136 whole entry, looked up): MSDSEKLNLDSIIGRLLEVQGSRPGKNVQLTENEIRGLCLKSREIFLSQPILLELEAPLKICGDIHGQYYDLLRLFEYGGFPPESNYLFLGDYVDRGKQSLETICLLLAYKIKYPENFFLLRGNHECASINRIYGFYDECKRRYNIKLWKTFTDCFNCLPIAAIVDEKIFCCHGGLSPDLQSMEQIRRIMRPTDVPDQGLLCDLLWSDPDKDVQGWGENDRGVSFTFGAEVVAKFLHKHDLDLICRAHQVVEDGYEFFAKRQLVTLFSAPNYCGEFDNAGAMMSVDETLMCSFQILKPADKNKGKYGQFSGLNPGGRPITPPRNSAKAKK
testName: human PP1 catalytic activity blockade – biochemical, fluorescence, triplicate, counter-screen for PP5 inhibitor project (AID 2355)
recordedConditions: PP1 enzyme, fluorescent phosphatase substrate; at 6.7 µM; stronger effect = higher value
The list shows a part of the results.

smilesData	inhibition / %
O=c1ccc2c(-c3ccccc3S(=O)(=O)O)c3ccc(O)c(O)c3oc-2c1O	5.34
CNC(=S)NNC(=O)c1oc2nc(-c3ccccc3)cc(-c3ccco3)c2c1N	-1.11
COc1cc(/C=C2/SC(=S)N(Cc3ccccc3)C2=O)cc(OC)c1O	2.23
CN(C)c1nc(N)nc(CSc2nnnn2-c2cccc3ccccc23)n1	-1.14
C[C@@]12C(=O)N(c3cccc(Br)c3)C(=O)N1[C@H](c1ccc(Cl)cc1)[C@@H]1C(=O)N(C3CCCCC3)C(=O)[C@@H]12	6.16
